Listing of recorded LD50 by entry.
- MEASUREMENT_DESCRIPTION: LD50 Tests
- EXPERIMENTAL_SETUP: in vivo; IP single dose - CD1 Male Mouse
Where a name gives a salt, the structure may show the parent alone.
QUANTITY_KIND: LD50 (mg/kg)

> print(dat)
                                   compound  endpoint.result
1  OCC(CO)(CO)NCc1ccc2ccc3cccc4ccc1c2c34 [Example 10, hydrochloride]              160
2  CC(O)CCNCc1ccc2ccc3cccc4ccc1c2c34 (centres unmarked) [Example 14, hydrochloride]              130
3  CCC(CO)NCc1ccc2ccc3cccc4ccc1c2c34 (centres unmarked) [Example 6, hydrochloride]              350
4  OCC(CO)NCc1ccc2ccc3cccc4ccc1c2c34 [Example 11, hydrochloride]              250
5  CCC(O)CNCc1ccc2ccc3cccc4ccc1c2c34 (centres unmarked) [Example 9, hydrochloride]              350
6  CC(CO)(CO)NCc1ccc2ccc3cccc4ccc1c2c34 [Example 1A, hydrochloride]              350
7  CCC(CO)(CO)NCc1ccc2ccc3cccc4ccc1c2c34 [Example 5A, hydrochloride]              160
8  OCCNCc1ccc2ccc3cccc4ccc1c2c34 [Example 13, hydrochloride]              160
